# assayMethodText: Solubility of APIs in D5W solution
# Format: physicochemical
# settings: D5W solution, saline or isotonic, thermodynamic from solid; unformulated API, saturated solution; read-out: Solubility in D5W solution
# Experimental: The solution was sampled after centrifugation (13.5 k rpm for 5 minutes) and the solubility of the APIs was determined by HPLC analysis of the saturated solution. Analysis was performed on an Agilent 1200 series HPLC employing a Waters, Xbridge Peptide BEH C18 column (150×4.6 mm i.d., 3.5 μm). […] Bifonazole was analysed using a 1 mL/min flow rate of 65:35 HPLC methanol:ammonium acetate (5 g/L, pH 2) with UV detection at 252 nm.
Kindly supply the reported solubility at 2 min values for the records listed here.
Report the value in µg/mL with no unit label.

Q. What measured solubility at 2 min goes with `O=C1[C@H](CC[C@H](O)c2ccc(F)cc2)[C@@H](c2ccc(O)cc2)N1c1ccc(F)cc1` ?
A. 3.4

Q. Same question for `O=C1NC(=O)C(c2ccccc2)(c2ccccc2)N1` please.
A. 14.1
